pIC50 listing for selected molecules.
Molecular target: Tyrosine-protein kinase Lck (Homo sapiens, UniProt P06239)
Sequence (P06239 whole entry, the tested form may be a part): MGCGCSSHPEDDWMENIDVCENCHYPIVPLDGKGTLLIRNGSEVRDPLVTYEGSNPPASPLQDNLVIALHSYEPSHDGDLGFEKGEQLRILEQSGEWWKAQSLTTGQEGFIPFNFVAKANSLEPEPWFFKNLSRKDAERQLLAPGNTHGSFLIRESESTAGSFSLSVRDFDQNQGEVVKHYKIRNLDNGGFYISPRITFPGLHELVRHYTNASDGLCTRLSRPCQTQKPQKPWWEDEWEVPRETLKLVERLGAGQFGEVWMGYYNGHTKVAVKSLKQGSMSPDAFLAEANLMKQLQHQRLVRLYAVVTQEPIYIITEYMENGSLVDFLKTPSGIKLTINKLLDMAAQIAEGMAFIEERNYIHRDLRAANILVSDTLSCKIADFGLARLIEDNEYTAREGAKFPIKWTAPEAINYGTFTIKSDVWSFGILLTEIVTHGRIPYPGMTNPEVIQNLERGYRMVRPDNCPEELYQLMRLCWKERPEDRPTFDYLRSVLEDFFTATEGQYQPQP
Assay: Affinity for GST-Lck-SH2 domain in ELISA
Where a SMILES comes first, the peptide text is derived from it. [ ]: non-standard residue; d: D form. The star is where a group is joined. Dopa = N[C@@H](Cc1ccc(O)c(O)c1)C(=O)O; Caffeoyl = O=C(/C=C/c1ccc(O)c(O)c1)*
Scale explanation: pIC50 corresponds to minus log10 of a concentration expressed in moles per litre.

CC[C@H](C)[C@H](NC(=O)[C@H](CCC(=O)O)NC(=O)[C@H](CCC(=O)O)NC(=O)[C@H](Cc1ccc(O)c(O)c1)NC(=O)/C=C/c1ccc(O)c(O)c1)C(=O)N[C@@H](CCC(=O)O)C(=O)O (Caffeoyl-[Dopa]EEIE-OH) : 4.74
CC(=O)N[C@@H](Cc1ccc(O)c(O)c1)C(=O)N[C@@H](CCC(=O)O)C(=O)N[C@@H](CCC(=O)O)C(=O)N[C@@H](CCC(=O)O)C(=O)O (Ac-[Dopa]EEE-OH) : 3.92

Query molecule follows.
In: Enter pIC50 (test system Tyrosine-protein kinase Lck (Homo sapiens, UniProt P06239)) for CC[C@H](C)[C@H](NC(=O)[C@H](CCC(=O)O)NC(=O)[C@H](CCC(=O)O)NC(=O)[C@H](Cc1ccc(O)cc1)NC(=O)/C=C/c1ccc(O)c(O)c1)C(=O)N[C@@H](CCC(=O)O)C(=O)O (Caffeoyl-YEEIE-OH)
Out: 4.57
